molecular target: Epidermal growth factor receptor (Homo sapiens); test: Inhibition of EGFR measured as pGAT-biotin peptide phosphorylation in presence of 2.0 uM ATP by HTRF assay; assay type: functional
Sequence (P00533 whole entry): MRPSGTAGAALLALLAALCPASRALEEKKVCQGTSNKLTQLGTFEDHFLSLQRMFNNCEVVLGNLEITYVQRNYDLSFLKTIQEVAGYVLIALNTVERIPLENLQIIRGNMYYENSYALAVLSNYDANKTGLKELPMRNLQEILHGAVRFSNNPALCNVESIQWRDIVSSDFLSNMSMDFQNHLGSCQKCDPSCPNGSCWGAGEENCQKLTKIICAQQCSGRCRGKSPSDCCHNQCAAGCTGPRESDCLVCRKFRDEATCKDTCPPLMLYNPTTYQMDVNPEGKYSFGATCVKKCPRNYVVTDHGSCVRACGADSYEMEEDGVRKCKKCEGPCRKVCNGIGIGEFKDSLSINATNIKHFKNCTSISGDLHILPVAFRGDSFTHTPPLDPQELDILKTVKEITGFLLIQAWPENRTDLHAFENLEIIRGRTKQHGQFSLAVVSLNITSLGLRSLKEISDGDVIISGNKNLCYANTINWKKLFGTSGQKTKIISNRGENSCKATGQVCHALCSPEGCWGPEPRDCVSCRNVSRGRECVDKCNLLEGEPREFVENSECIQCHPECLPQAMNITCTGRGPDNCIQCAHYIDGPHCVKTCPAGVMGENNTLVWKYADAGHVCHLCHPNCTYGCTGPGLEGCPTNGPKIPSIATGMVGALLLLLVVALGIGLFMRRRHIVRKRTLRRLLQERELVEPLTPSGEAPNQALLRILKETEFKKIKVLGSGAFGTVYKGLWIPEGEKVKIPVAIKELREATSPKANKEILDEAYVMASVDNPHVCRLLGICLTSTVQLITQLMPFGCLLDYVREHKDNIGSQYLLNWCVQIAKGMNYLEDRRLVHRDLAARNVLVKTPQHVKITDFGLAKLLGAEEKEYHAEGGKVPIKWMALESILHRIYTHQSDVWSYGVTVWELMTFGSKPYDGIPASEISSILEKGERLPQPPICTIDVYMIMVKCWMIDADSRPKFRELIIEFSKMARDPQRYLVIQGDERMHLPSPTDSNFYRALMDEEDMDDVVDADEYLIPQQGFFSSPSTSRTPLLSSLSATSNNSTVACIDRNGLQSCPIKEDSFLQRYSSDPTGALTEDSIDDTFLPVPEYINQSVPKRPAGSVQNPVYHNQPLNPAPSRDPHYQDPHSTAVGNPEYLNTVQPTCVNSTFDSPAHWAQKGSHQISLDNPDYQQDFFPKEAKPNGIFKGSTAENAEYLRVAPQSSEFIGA
What IC50 was measured for each of the following?

Q: Recall the reported IC50 of `COc1cc2c(cc1OC)Sc1nc(C)nc(Nc3cccc(Cl)c3F)c1NC2` on Epidermal growth factor receptor (Homo sapiens) and write it down.
Ans: > 100 µM

Q: Recall the reported IC50 of `COc1cc2c(cc1OC)Oc1ncnc(Oc3cccc(Br)c3)c1N(C)C2` on Epidermal growth factor receptor (Homo sapiens) and write it down.
Ans: 1.2 µM

Q: Recall the reported IC50 of `COc1cc2c(cc1OC)Sc1ncnc(Nc3cccc(Cl)c3F)c1NC2` on Epidermal growth factor receptor (Homo sapiens) and write it down.
Ans: 62.9 µM

Q: Recall the reported IC50 of `COc1cc2c(cc1OC)Oc1ncnc(Nc3ccc(Br)cc3)c1NC2` on Epidermal growth factor receptor (Homo sapiens) and write it down.
Ans: 8.7 µM

Q: Recall the reported IC50 of `COc1cc2c(cc1OC)Oc1ncnc(Nc3cc(Cl)ccc3F)c1NC2` on Epidermal growth factor receptor (Homo sapiens) and write it down.
Ans: 1.1 µM

Q: Recall the reported IC50 of `COc1cc2c(cc1OC)Oc1ncnc(Nc3cccc(Cl)c3F)c1NC2` on Epidermal growth factor receptor (Homo sapiens) and write it down.
Ans: 0.3 µM

Q: Recall the reported IC50 of `COc1cc2c(cc1OC)Nc1ncnc(Nc3cccc(Br)c3)c1NC2` on Epidermal growth factor receptor (Homo sapiens) and write it down.
Ans: 1.5 µM

Q: Recall the reported IC50 of `COc1cc2c(cc1OC)Sc1nc(C)nc(Nc3ccc4[nH]cnc4c3)c1NC2` on Epidermal growth factor receptor (Homo sapiens) and write it down.
Ans: 14.5 µM

Q: Recall the reported IC50 of `COc1cc2c(cc1OC)Oc1ncnc(Nc3ccc4ncsc4c3)c1NC2` on Epidermal growth factor receptor (Homo sapiens) and write it down.
Ans: 5.6 µM

Q: Recall the reported IC50 of `COc1cc2c(cc1OC)Sc1ncnc(Sc3cccc(Cl)c3)c1NC2` on Epidermal growth factor receptor (Homo sapiens) and write it down.
Ans: 2.9 µM

Q: Recall the reported IC50 of `COc1cc2c(cc1OC)Sc1ncnc(N(C)c3cccc(Cl)c3)c1NC2` on Epidermal growth factor receptor (Homo sapiens) and write it down.
Ans: 27 µM

Q: Recall the reported IC50 of `COc1cc2c(cc1OC)Sc1nc(C)nc(Nc3cccc(Br)c3)c1NC2` on Epidermal growth factor receptor (Homo sapiens) and write it down.
Ans: 30.7 µM

Q: Recall the reported IC50 of `COc1cc2c(cc1OC)Nc1ncnc(NCc3ccc(F)c(Cl)c3)c1NC2` on Epidermal growth factor receptor (Homo sapiens) and write it down.
Ans: 0.3 µM

Q: Recall the reported IC50 of `COc1cc2c(cc1OC)Sc1nc(C)nc(Nc3ccc(F)c(Cl)c3)c1NC2` on Epidermal growth factor receptor (Homo sapiens) and write it down.
Ans: 45.9 µM

Q: Recall the reported IC50 of `COc1cc2c(cc1OC)Oc1ncnc(Oc3cccc(Br)c3)c1NC2` on Epidermal growth factor receptor (Homo sapiens) and write it down.
Ans: 0.7 µM

Q: Recall the reported IC50 of `COc1cc2c(cc1OC)Sc1nc(C)nc(Nc3ccc4c(c3)CN=N4)c1NC2` on Epidermal growth factor receptor (Homo sapiens) and write it down.
Ans: 16.2 µM

Q: Recall the reported IC50 of `COc1cc2c(cc1OC)Oc1ncnc(Sc3cccc(Br)c3)c1NC2` on Epidermal growth factor receptor (Homo sapiens) and write it down.
Ans: 1.3 µM

Q: Recall the reported IC50 of `COc1cc2c(cc1OC)Oc1ncnc(Nc3ccc4ccccc4c3)c1NC2` on Epidermal growth factor receptor (Homo sapiens) and write it down.
Ans: 0.5 µM

Q: Recall the reported IC50 of `COc1cc2c(cc1OC)Sc1ncnc(Nc3cccc(Br)c3)c1NC2` on Epidermal growth factor receptor (Homo sapiens) and write it down.
Ans: 5.9 µM

Q: Recall the reported IC50 of `COc1cc2c(cc1OC)Oc1ncnc(Nc3ccc(F)cc3)c1NC2` on Epidermal growth factor receptor (Homo sapiens) and write it down.
Ans: 7.1 µM

Q: Recall the reported IC50 of `COc1cc2c(cc1OC)Oc1ncnc(Nc3cccc(C)c3)c1NC2` on Epidermal growth factor receptor (Homo sapiens) and write it down.
Ans: 7.4 µM

Q: Recall the reported IC50 of `COc1cc2c(cc1OC)Sc1nc(C)nc(Nc3ccc4c[nH]nc4c3)c1NC2` on Epidermal growth factor receptor (Homo sapiens) and write it down.
Ans: 24.6 µM

Q: Recall the reported IC50 of `COc1cc2c(cc1OC)Oc1nc(C)nc(Nc3cccc(Cl)c3F)c1NC2` on Epidermal growth factor receptor (Homo sapiens) and write it down.
Ans: > 100 µM

Q: Recall the reported IC50 of `COc1cc2c(cc1OC)Sc1ncnc(Oc3cccc(Cl)c3F)c1NC2` on Epidermal growth factor receptor (Homo sapiens) and write it down.
Ans: 19.3 µM

Q: Recall the reported IC50 of `COc1cc2c(cc1OC)Oc1ncnc(Sc3cccc(Cl)c3)c1NC2` on Epidermal growth factor receptor (Homo sapiens) and write it down.
Ans: 1 µM

Q: Recall the reported IC50 of `COc1cc2c(cc1OC)Sc1nc(C)nc(Nc3ccc(C)c(Br)c3)c1NC2` on Epidermal growth factor receptor (Homo sapiens) and write it down.
Ans: > 100 µM

Q: Recall the reported IC50 of `COc1cc2c(cc1OC)Oc1ncnc(Oc3cccc(Cl)c3F)c1NC2` on Epidermal growth factor receptor (Homo sapiens) and write it down.
Ans: 4.6 µM

Q: Recall the reported IC50 of `COc1cc2c(cc1OC)Sc1ncnc(N(C)c3cccc(Br)c3)c1NC2` on Epidermal growth factor receptor (Homo sapiens) and write it down.
Ans: > 100 µM

Q: Recall the reported IC50 of `COc1cc2c(cc1OC)Sc1ncnc(Nc3ccc4c[nH]nc4c3)c1NC2` on Epidermal growth factor receptor (Homo sapiens) and write it down.
Ans: 14.1 µM

Q: Recall the reported IC50 of `COc1cc2c(cc1OC)Sc1nc(C)nc(Nc3ccc(Cl)c(C)c3)c1NC2` on Epidermal growth factor receptor (Homo sapiens) and write it down.
Ans: > 100 µM

Q: Recall the reported IC50 of `COc1cc2c(cc1OC)Sc1nc(C)nc(Nc3ccc4ncsc4c3)c1NC2` on Epidermal growth factor receptor (Homo sapiens) and write it down.
Ans: 15.2 µM

Q: Recall the reported IC50 of `COc1cc2c(cc1OC)Nc1ncnc(NCc3ccccc3)c1NC2` on Epidermal growth factor receptor (Homo sapiens) and write it down.
Ans: 0.2 µM

Q: Recall the reported IC50 of `COc1cc2c(cc1OC)Nc1ncnc(N[C@H](C)c3ccccc3)c1NC2` on Epidermal growth factor receptor (Homo sapiens) and write it down.
Ans: 0.15 µM

Q: Recall the reported IC50 of `COc1cc2c(cc1OC)Sc1ncnc(Nc3ccc(F)c(Cl)c3)c1NC2` on Epidermal growth factor receptor (Homo sapiens) and write it down.
Ans: 8.2 µM

Q: Recall the reported IC50 of `COc1cc2c(cc1OC)Sc1ncnc(Oc3cccc(Br)c3)c1NC2` on Epidermal growth factor receptor (Homo sapiens) and write it down.
Ans: 21.7 µM

Q: Recall the reported IC50 of `C#Cc1cccc(Nc2ncnc3c2NCc2cc(OC)c(OC)cc2O3)c1` on Epidermal growth factor receptor (Homo sapiens) and write it down.
Ans: 3.2 µM

Q: Recall the reported IC50 of `COc1cc2c(cc1OC)Oc1ncnc(Nc3cccc(Br)c3)c1NC2` on Epidermal growth factor receptor (Homo sapiens) and write it down.
Ans: 0.3 µM

Q: Recall the reported IC50 of `COc1cccc(CNc2ncnc3c2NCc2cc(OC)c(OC)cc2N3)c1` on Epidermal growth factor receptor (Homo sapiens) and write it down.
Ans: 0.8 µM

Q: Recall the reported IC50 of `COc1cc2c(cc1OC)Sc1ncnc(Sc3cccc(Br)c3)c1NC2` on Epidermal growth factor receptor (Homo sapiens) and write it down.
Ans: 1.6 µM

Q: Recall the reported IC50 of `COc1cc2c(cc1OC)Sc1ncnc(Nc3ccc4ncsc4c3)c1NC2` on Epidermal growth factor receptor (Homo sapiens) and write it down.
Ans: > 100 µM
